Where these numbers come from: patent US20230134571A1

- system: HIV Env, isolate BF1266.431a (HIV)
- measurementDescription: cell-based or functional assay
resultType: IC80 (µg/ml) with constrains (µg/mL)
Give bare numbers, in µg/mL.

Look up IC80 (µg/ml) with constrains: PGDM1400 (antibody, V domains shown) VH: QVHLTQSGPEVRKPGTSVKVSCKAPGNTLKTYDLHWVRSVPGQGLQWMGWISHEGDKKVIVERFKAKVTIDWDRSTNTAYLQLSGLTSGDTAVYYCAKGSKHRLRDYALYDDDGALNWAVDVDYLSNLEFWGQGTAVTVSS VL: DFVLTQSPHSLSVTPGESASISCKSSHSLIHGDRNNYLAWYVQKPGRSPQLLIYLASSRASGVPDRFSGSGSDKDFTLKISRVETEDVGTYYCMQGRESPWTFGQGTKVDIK
0.024
